- Test system: lanierone-responsive B-neuron OSN class (ItypOR36)
- method_notes: net action potential response of lanierone B-neuron (blank-subtracted) (spikes/s (Hz)); higher = stronger excitation
- conditions: co-localized A-neuron class: (+)-isopinocamphone; 10 µg on filter paper; neuron: B neuron (small spike amplitude)
The entries below are paired with their reported net action potential response.

molecule | system_under_test | net action potential response
CC/C=C/CCO | lanierone-responsive B-neuron OSN class (ItypOR36) | -2
Cc1ccc(C(C)C)cc1 [p-Cymene] | lanierone-responsive B-neuron OSN class (ItypOR36) | -2
C=CC(O)CCCCC (racemic) [(±)-1-Octen-3-ol] | lanierone-responsive B-neuron OSN class (ItypOR36) | -2

====

- System: lanierone-responsive B-neuron OSN class (ItypOR36)
- method_notes: net action potential response of lanierone B-neuron (blank-subtracted) (spikes/s (Hz)); higher = stronger excitation
- conditions: co-localized A-neuron class: ipsdienol; 10 µg on filter paper; neuron: B neuron (small spike amplitude)

molecule | net action potential response
Cc1ccc(C(C)C)cc1 | -1.33
CC1=CCC2CC1C2(C)C (stereo not drawn) [(+)-α-Pinene] | -4
CC(C)=CCC/C(C)=C/C=O [Citral (E/Z mix)] | -5.33
CCc1ccc(O)c(OC)c1 | -2
CC(C)CCO | -4.67
C=C(C)C1CC=C(C)C(=O)C1 (racemic) [(±)-Carvone] | -4.67
C[C@]12CCC[C@](C)(OC1)O2 (racemic) [(±)-Frontalin] | 0
CCC/C=C/C=O [(E)-hex-2-enal] | 0.667
CC/C=C/CCO | 0
CC(=O)CC/C=C(\C)CCC=C(C)C | -3.33
C=Cc1ccccc1 | -1.33

====

- Test system: ipsdienol A-neuron OSN class
- method_notes: net action potential response of A-neuron (blank-subtracted) (spikes/s (Hz)); higher = stronger excitation
- conditions: 10 µg on filter paper; neuron: A neuron (large spike amplitude)
The entries below are paired with their reported net action potential response.

molecule | system_under_test | net action potential response
C=CC(=C)C[C@@H](O)CC(C)C (racemic) [(±)-Ipsenol] | ipsdienol A-neuron OSN class | 19.3
CCC/C=C\CO | ipsdienol A-neuron OSN class | 0.667
CC(=O)OCCC(C)C [3-Methylbutyl acetate] | ipsdienol A-neuron OSN class | 0
CCCCCC=O [Hexanal] | ipsdienol A-neuron OSN class | 0.667
C=Cc1ccccc1 [Styrene] | ipsdienol A-neuron OSN class | 0
OCCc1ccccc1 [2-Phenylethanol] | ipsdienol A-neuron OSN class | -2.67
CC1=CCC(C(C)C)=CC1 [γ-Terpinene] | ipsdienol A-neuron OSN class | 2
CC1=CCC2CC1C2(C)C (stereo not drawn) [(+)-α-Pinene] | ipsdienol A-neuron OSN class | 2.67
COc1ccccc1 [Anisole] | ipsdienol A-neuron OSN class | 2.67
C=C1[C@@H]2CC[C@@H](C2)C1(C)C (racemic) [(±)-Camphene] | ipsdienol A-neuron OSN class | 0

====

- Test system: (+)-isopinocamphone A-neuron OSN class
- method_notes: net action potential response of A-neuron (blank-subtracted) (spikes/s (Hz)); higher = stronger excitation
- conditions: 10 µg on filter paper; neuron: A neuron (large spike amplitude)

molecule | net action potential response
CC1(C)C2CC=C(CO)C1C2 (racemic) [(±)-Myrtenol] | 1.33
CC12CCC(CC1=O)C2(C)C (racemic) [(±)-Camphor] | 125
C=C1[C@@H]2CC[C@@H](C2)C1(C)C (racemic) [(±)-Camphene] | -2
